Provenance of the data: patent US9296725B2

study-system: TYK2 (Homo sapiens, UniProt P29597)
Construct: endogenous in cells; host or cells: Molt4 (ATCC CRL-1582) and Ramos (ATCC CRL-1596), mixed lysate 1:2
Sequence (P29597 whole entry): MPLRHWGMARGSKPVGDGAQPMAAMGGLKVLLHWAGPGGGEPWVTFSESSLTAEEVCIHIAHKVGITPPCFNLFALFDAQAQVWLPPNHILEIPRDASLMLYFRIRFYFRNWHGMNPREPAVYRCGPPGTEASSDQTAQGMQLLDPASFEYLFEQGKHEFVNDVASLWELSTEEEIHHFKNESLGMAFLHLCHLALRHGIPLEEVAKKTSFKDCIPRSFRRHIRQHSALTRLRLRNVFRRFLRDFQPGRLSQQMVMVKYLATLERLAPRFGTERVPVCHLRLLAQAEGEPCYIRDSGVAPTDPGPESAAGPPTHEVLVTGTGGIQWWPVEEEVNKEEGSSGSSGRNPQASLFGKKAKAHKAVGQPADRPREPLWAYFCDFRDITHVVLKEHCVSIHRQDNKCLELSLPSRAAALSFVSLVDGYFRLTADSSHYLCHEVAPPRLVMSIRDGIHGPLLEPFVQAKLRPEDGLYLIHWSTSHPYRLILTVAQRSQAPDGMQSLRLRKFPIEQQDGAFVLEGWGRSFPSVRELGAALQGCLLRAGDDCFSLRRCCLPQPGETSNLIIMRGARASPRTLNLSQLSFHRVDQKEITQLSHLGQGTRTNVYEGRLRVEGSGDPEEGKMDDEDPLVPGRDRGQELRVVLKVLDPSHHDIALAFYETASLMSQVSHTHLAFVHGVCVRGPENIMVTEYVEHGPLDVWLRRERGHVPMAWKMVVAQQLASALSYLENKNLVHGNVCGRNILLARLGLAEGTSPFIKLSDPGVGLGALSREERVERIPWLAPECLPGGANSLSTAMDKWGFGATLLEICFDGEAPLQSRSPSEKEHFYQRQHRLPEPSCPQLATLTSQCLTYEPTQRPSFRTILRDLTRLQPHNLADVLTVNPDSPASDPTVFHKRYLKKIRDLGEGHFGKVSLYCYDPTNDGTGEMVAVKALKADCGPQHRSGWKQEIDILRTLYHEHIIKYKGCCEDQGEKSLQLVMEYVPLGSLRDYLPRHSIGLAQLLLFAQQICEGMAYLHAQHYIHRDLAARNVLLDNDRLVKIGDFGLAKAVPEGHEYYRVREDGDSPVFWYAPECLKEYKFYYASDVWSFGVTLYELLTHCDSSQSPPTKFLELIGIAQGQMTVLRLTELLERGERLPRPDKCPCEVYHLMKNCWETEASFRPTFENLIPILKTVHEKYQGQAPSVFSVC
experimental-details: Kinobeads assay, TYK2 (competition binding in mixed Molt4/Ramos cell lysate, dot blot detection)
condition: Kinobeads assay, Molt4/Ramos lysate; read-out: TYK2 Band (Kinobeads assay potency, IC50)
Procedure: The compounds of the present invention as described in the previous examples were tested in a Kinobeads™ assay as described for ZAP-70 (WO-A 2007/137867). […] Bound proteins were then eluted and the presence of TYK2 and JAK2 was detected and quantified using specific antibodies in a dot blot procedure and the Odyssey infrared detection system. Dose response curves for individual kinases were generated and IC50 values calculated. […]
IC50: recorded values
metric: IC50

query-smiles	metric	test-result
CS(=O)(=O)NCc1cccc(CNc2nc(Nc3cnn(CCO)c3)ncc2Cl)c1	IC50	100 to 1000 nM
COc1cc(F)c(CNc2nc(Nc3cnn(CC(N)=O)c3)ncc2C)c(F)c1	IC50	10 to 100 nM
[2H]C([2H])(O)C([2H])([2H])n1cc(Nc2ncc(Cl)c(NCc3cccc(F)c3F)n2)cn1	IC50	100 to 1000 nM
C[C@H](CO)NC(=O)Cn1cc(Nc2nccc(NCc3c(F)ccc(C#N)c3F)n2)cn1	IC50	≤ 10 nM

----------
Attribute: IC50
study-system: TYK2 (Homo sapiens)
Construct: endogenous in cells; host or cells: Molt4 (ATCC CRL-1582) and Ramos (ATCC CRL-1596), mixed lysate 1:2
experimental-details: Kinobeads assay, TYK2 (competition binding in mixed Molt4/Ramos cell lysate, dot blot detection)
condition: Kinobeads assay, Molt4/Ramos lysate; read-out: TYK2 Band (Kinobeads assay potency, IC50)
Experimental: The compounds of the present invention as described in the previous examples were tested in a Kinobeads™ assay as described for ZAP-70 (WO-A 2007/137867). […] Bound proteins were then eluted and the presence of TYK2 and JAK2 was detected and quantified using specific antibodies in a dot blot procedure and the Odyssey infrared detection system. Dose response curves for individual kinases were generated and IC50 values calculated. […]
metric: IC50

query-smiles	test-result
O=C(Cn1cc(Nc2nccc(NCc3c(F)cc(F)cc3F)n2)cn1)N1CCOCC1	10 to 100 nM
O=C(Cn1cc(Nc2ncc(Cl)c(NCc3c(F)ccc(F)c3F)n2)cn1)NC1CC1	≤ 10 nM
Cc1cnc(Nc2cnn(CC(=O)N3CCOCC3)c2)nc1NCc1cccc(OC(F)F)c1	≤ 10 nM
COc1ccc(S(C)(=O)=O)cc1CNc1nc(Nc2cnn(CCO)c2)ncc1F	10 to 100 nM
COc1cc(F)c(CNc2nc(Nc3cnn(CC(=O)N4CCOCC4)c3)ncc2C)c(F)c1	≤ 10 nM
Cn1cc(Nc2nccc(NCc3c(F)cccc3F)n2)cn1	100 to 1000 nM
C[C@@H](CO)NC(=O)Cn1cc(Nc2nccc(NCc3c(F)cccc3Cl)n2)cn1	≤ 10 nM
CS(=O)(=O)c1ccc(F)cc1CNc1nc(Nc2cnn(CC(=O)NC3CC3)c2)ncc1Cl	10 to 100 nM

----------
study-system: JAK2 (Homo sapiens)
Construct: endogenous in cells
Sequence (O60674 whole entry): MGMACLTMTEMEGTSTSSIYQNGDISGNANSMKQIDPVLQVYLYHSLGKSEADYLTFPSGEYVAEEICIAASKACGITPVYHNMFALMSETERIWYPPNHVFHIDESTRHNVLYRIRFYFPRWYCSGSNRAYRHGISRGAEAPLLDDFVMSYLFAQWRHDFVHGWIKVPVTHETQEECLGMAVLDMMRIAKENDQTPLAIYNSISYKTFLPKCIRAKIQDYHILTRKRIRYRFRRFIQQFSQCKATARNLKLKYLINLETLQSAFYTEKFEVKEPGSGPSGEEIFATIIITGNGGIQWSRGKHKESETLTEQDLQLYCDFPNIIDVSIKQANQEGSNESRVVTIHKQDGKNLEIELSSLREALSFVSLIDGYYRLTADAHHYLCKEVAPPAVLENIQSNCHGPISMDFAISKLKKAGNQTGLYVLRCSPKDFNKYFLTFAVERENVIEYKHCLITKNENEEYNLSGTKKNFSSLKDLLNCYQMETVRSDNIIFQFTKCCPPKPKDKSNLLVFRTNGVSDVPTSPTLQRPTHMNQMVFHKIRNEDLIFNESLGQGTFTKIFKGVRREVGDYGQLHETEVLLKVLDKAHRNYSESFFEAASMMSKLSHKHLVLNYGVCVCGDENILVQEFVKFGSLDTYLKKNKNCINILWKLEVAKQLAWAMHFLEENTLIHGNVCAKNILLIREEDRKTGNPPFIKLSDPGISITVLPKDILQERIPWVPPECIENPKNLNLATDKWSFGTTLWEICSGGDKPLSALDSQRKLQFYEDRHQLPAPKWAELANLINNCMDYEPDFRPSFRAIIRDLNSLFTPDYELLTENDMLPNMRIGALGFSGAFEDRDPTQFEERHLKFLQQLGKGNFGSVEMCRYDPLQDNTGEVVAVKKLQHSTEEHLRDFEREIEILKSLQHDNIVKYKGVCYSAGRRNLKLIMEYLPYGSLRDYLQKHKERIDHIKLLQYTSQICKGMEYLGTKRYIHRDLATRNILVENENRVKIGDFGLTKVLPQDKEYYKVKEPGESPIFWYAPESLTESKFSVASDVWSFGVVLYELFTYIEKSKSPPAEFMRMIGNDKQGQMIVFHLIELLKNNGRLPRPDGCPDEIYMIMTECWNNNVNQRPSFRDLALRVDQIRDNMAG
experimental-details: Kinobeads assay, JAK2 (competition binding in mixed Molt4/Ramos cell lysate, dot blot detection)
condition: read-out: JAK2 Band (Kinobeads assay potency, IC50)
pIC50: −log10 of the molar value.

compound	pIC50
Cn1cc(Nc2ncc(Cl)c(NCc3cc(F)cc(F)c3)n2)cn1	7.00 to 8.00
[2H]C([2H])(O)C([2H])([2H])n1cc(Nc2ncc(Cl)c(NCc3cccc(F)c3F)n2)cn1	5.00 to 6.00
CC(C)NC(=O)Cn1cc(Nc2ncc(F)c(NCc3cccc(OC(F)F)c3)n2)cn1	< 5.00
Fc1ccccc1CNc1nc(Nc2cn[nH]c2)ncc1Cl	6.00 to 7.00
Cn1cc(Nc2ncc(Cl)c(NCc3cc(S(C)(=O)=O)ccc3F)n2)cn1	6.00 to 7.00
Cn1cc(Nc2ncc(Cl)c(NCc3c(F)cc(F)cc3F)n2)cn1	5.00 to 6.00
CNC(=O)Cn1cc(Nc2ncc(F)c(NCc3c(Cl)cccc3Cl)n2)cn1	5.00 to 6.00
CN(C)C(=O)Cn1cc(Nc2ncc(Cl)c(NCc3cccc(CNS(C)(=O)=O)c3)n2)cn1	6.00 to 7.00
COc1cccc(CNc2nc(Nc3cnn(CCO)c3)ncc2Cl)c1	5.00 to 6.00
CCNC(=O)Cn1cc(Nc2nccc(NCc3c(F)cc(F)cc3F)n2)cn1	5.00 to 6.00
CS(=O)(=O)CCn1cc(Nc2ncc(Cl)c(NCc3ccccc3)n2)cn1	5.00 to 6.00
Cn1cc(Nc2ncc(F)c(NCc3cc(F)ccc3S(C)(=O)=O)n2)cn1	6.00 to 7.00
NS(=O)(=O)c1cccc(CNc2nc(Nc3cnn(CCO)c3)ncc2Cl)c1	5.00 to 6.00
O=C(Cn1cc(Nc2ncc(F)c(NCc3c(F)cc(F)cc3F)n2)cn1)NC1CC1	5.00 to 6.00
Cc1cnc(Nc2cnn(CC(=O)NC3CCOC3)c2)nc1NCc1c(F)cc(F)cc1F (centres unmarked)	6.00 to 7.00
CN(Cc1cccc(CNc2nc(Nc3cnn(CC(=O)N4CCOCC4)c3)ncc2Cl)c1)S(C)(=O)=O	5.00 to 6.00
OCCn1cc(Nc2ncc(Cl)c(NCc3ccccc3C(F)(F)F)n2)cn1	5.00 to 6.00
